For each of the compounds below, state its Ki.
Target: rat TAAR1 (Rattus norvegicus (Rat), UniProt Q923Y9)
Sequence (Q923Y9 whole entry): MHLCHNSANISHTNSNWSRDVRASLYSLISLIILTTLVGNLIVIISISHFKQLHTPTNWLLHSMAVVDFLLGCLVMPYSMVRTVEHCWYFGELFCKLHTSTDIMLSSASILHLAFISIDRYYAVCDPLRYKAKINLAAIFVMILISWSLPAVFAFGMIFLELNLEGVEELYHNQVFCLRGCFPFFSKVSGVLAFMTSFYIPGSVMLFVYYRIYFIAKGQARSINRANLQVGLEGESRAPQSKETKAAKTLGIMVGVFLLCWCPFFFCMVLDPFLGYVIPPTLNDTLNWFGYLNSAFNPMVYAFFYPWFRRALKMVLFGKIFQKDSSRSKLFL
Assay: Radioligand binding assay on rat TAAR1
Conditions: rat TAAR1, HEK-293 membranes; second value of the mouse/rat pair
Numbers only, in µM.

Completed entries (count: 2):
INSERT INTO assay_data (compound, val) VALUES
  ('CC(CC(F)(F)F)OC(=O)Nc1ccc(C2CCNC2)cc1 (racemic)', 0.0219),
  ('CC1(c2ccc(NC(=O)c3ccc(Cl)cc3)cc2)CCN(Cc2ccccc2)C1 (racemic)', 0.522);

Continue with the compound presented below.
compound O=C(Nc1cccc(OC2CCNC2)c1)c1ccc(Cl)cc1 (racemic) , Ki observed: 0.0935

====

Target: mouse TAAR1 (Mus musculus (Mouse))
Assay: Radioligand binding assay on mouse TAAR1
Conditions: mouse TAAR1, HEK-293 membranes; first value of the mouse/rat pair
What Ki was measured for each of the following?
One number for each entry, in µM.

INSERT INTO results (compound, tested_system, parameter_measured, val) VALUES
  ('CC(CC(F)(F)F)OC(=O)Nc1ccc(C2CCNC2)cc1 (racemic) [Example 131]', 'mouse TAAR1 (Mus musculus (Mouse))', 'Ki', 0.0208);

// next entry
Consider O=C(Nc1cccc(OC2CCNC2)c1)c1ccc(Cl)cc1 (racemic) [Example 70] . Its measured Ki is 0.0097

====

Biological target: mouse TAAR1 (Mus musculus (Mouse), UniProt Q923Y8)
Sequence (Q923Y8 whole entry): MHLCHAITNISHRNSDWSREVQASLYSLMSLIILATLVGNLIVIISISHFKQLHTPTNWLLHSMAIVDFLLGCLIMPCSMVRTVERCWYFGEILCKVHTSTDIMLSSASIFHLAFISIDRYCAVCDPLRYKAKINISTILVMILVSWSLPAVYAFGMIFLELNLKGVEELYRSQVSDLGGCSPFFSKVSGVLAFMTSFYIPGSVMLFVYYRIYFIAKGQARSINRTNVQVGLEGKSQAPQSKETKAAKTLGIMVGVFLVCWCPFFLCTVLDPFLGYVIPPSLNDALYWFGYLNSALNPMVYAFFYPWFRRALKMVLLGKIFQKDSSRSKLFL
pKd: −log10 of the molar value.
Parameter measured: pKd

Record CCN(C[C@H]1COC(N)=N1)c1ccccc1 [reference compound] ; system mouse TAAR1 (Mus musculus (Mouse), UniProt Q923Y8); pKd = ~9.15

====

Biological target: UniProtKB Q923Y9
pKd: −log10 of the molar value.
Parameter measured: pKd

Reported pKd for CCN(C[C@H]1COC(N)=N1)c1ccccc1 [reference compound] was ~8.64
